# maps each entry to its concentration at 48 h
- assay procedure: Dog plasma metabolite profiles after single 15 mg/kg oral capsule of [14C]DCDQ
- Format: in vivo, beagle dogs
- experimental context: male, beagle, dog, plasma, oral, 15 mg/kg, 48 hr, dog 2; read-out: Estimated plasma concentration in dogs
Write down the numeric answer in ng/mL and omit the unit.

OC1CN2C[C@@H]3CCC[C@@H]3c3cccc(c32)CN1 (some centres unmarked) [Metabolite M1, hydroxy DCDQ] ... 44.7

Next compound, concentration at 48 h to be filled in.
Enquiry: Fill blank: measured concentration at 48 h of the compound [O-][N+]12CCN=Cc3cccc(c31)[C@H]1CCC[C@H]1C2 (some centres unmarked) [Metabolite M5, DCDQ imine N-oxide] is ____.
Return: 18.9

----------
- assay procedure: Dog plasma metabolite profiles after single 15 mg/kg oral capsule of [14C]DCDQ
- Type: in vivo, beagle dogs
- experimental context: 4 hr, dog 1
measured quantity: Chromatographic distribution of radioactivity in dog plasma

OC1[C@@H]2CCC[C@@H]2c2cccc3c2N1CCNC3 (some centres unmarked) [Metabolite M2, hydroxy DCDQ] ... 6.6%
[O-][N+]12CCN=Cc3cccc(c31)[C@H]1CCC[C@H]1C2 (some centres unmarked) [Metabolite M5, DCDQ imine N-oxide] ... 6.6%
c1cc2c3c(c1)[C@H]1CCC[C@H]1CN3CCNC2 [DCDQ, reference compound] ... 11%
O=C1CC[C@@H]2c3cccc4c3N(CCNC4)C[C@H]12 [Metabolite M7, 17-keto DCDQ] ... 6.9%

Alright, here's another compound for you.
Enquiry: Reported Chromatographic distribution of radioactivity in dog plasma for OC1CN2C[C@@H]3CCC[C@@H]3c3cccc(c32)CN1 (some centres unmarked) [Metabolite M1, hydroxy DCDQ] : what is it?
Return: 8.0%

----------
- assay procedure: Concentrations of DCDQ and DCDQ carbamoyl glucuronide (M6) in human plasma, LC/SRM (Table 34)
- Type: in vivo, healthy human subjects
- experimental context: human, plasma, oral, 300 mg, plasma, 300 mg (fed), 6 hr, Mean ± S.D.; read-out: M6 concentration in plasma
measured quantity: concentration at 6 h (ng/mL)
Give the value, in units of ng/mL, as a plain number.

Enquiry: GET /values?readout=concentration at 6 h&item= O=C(O)[C@H]1O[C@@H](OC(=O)N2CCN3C[C@@H]4CCC[C@@H]4c4cccc(c43)C2)[C@H](O)[C@@H](O)[C@@H]1O [Metabolite M6, carbamoyl glucuronide of DCDQ]
Return: 579

----------
- assay procedure: Concentrations of DCDQ and DCDQ carbamoyl glucuronide (M6) in human plasma, LC/SRM (Table 34)
- Type: in vivo, healthy human subjects
- experimental context: human, plasma, oral, 300 mg, plasma, 300 mg (fed), 24 hr, Mean ± S.D.; read-out: M6 concentration in plasma
measured quantity: concentration at 24 h (ng/mL)
All answers are understood in ng/mL, so give the number only.

Enquiry: Entry under review: O=C(O)[C@H]1O[C@@H](OC(=O)N2CCN3C[C@@H]4CCC[C@@H]4c4cccc(c43)C2)[C@H](O)[C@@H](O)[C@@H]1O [Metabolite M6, carbamoyl glucuronide of DCDQ] . Reported concentration at 24 h?
Return: 59

----------
- assay procedure: Dog plasma metabolite profiles after single 15 mg/kg oral capsule of [14C]DCDQ
- Format: in vivo, beagle dogs
- experimental context: 24 hr, dog 2
measured quantity: Chromatographic distribution of radioactivity in dog plasma (%)
Please respond with the number in % and leave the unit unwritten.

O=C1CC[C@@H]2c3cccc4c3N(CCNC4)C[C@H]12 [Metabolite M7, 17-keto DCDQ] ... 6.7
OC1CN2C[C@@H]3CCC[C@@H]3c3cccc(c32)CN1 (stereo partly shown) [Metabolite M1, hydroxy DCDQ] ... 2.1
O=C(O)[C@H]1O[C@@H](OC(=O)N2CCN3C[C@@H]4CCC[C@@H]4c4cccc(c43)C2)[C@H](O)[C@@H](O)[C@@H]1O [Metabolite M6, carbamoyl glucuronide of DCDQ] ... 5.6

As a next step, examine the compound that follows.
Enquiry: Consider the compound shown here: OC1[C@@H]2CCC[C@@H]2c2cccc3c2N1CCNC3 (stereo partly shown) [Metabolite M2, hydroxy DCDQ] What is its recorded Chromatographic distribution of radioactivity in dog plasma?
Return: 5.0

----------
- assay procedure: Dog urinary excretion and metabolite profiles after oral capsule of [14C]DCDQ
- Type: in vivo, beagle dogs
- experimental context: 8-24 hr, dog 3
A collection of compounds and their measured Chromatographic distribution of radioactivity in dog urine
Answer in %, number only, no unit symbol.

Reference set (3 entries):
OC1[C@@H]2CCC[C@@H]2c2cccc3c2N1CCNC3 (stereo partly shown) [Metabolite M2, hydroxy DCDQ] ... 26
O=C(O)[C@H]1O[C@@H](OC(=O)N2CCN3C[C@@H]4CCC[C@@H]4c4cccc(c43)C2)[C@H](O)[C@@H](O)[C@@H]1O [Metabolite M6, carbamoyl glucuronide of DCDQ] ... 3.6
OC1CN2C[C@@H]3CCC[C@@H]3c3cccc(c32)CN1 (stereo partly shown) [Metabolite M1, hydroxy DCDQ] ... 6.7

Please find the next compound below.
Enquiry: Record request: Chromatographic distribution of radioactivity in dog urine value, item c1cc2c3c(c1)[C@H]1CCC[C@H]1CN3CCNC2 [DCDQ, reference compound]
Return: 11

----------
- assay procedure: Concentrations of DCDQ and DCDQ carbamoyl glucuronide (M6) in human plasma, LC/SRM (Table 34)
- Assay type: in vivo, healthy human subjects
- experimental context: human, plasma, oral, 200 mg, plasma, 200 mg (fasted), 24 hr, individual subjects; read-out: M6 concentration in plasma
measured quantity: concentration at 24 h
Kindly report the value followed by its unit.

Enquiry: State the recorded concentration at 24 h for this entry: O=C(O)[C@H]1O[C@@H](OC(=O)N2CCN3C[C@@H]4CCC[C@@H]4c4cccc(c43)C2)[C@H](O)[C@@H](O)[C@@H]1O [Metabolite M6, carbamoyl glucuronide of DCDQ]
Return: 4.8 ng/mL

----------
- assay procedure: Rat plasma metabolite profiles after single oral 5 mg/kg [14C]DCDQ
- Format: in vivo, Sprague-Dawley rats
- experimental context: Sprague-Dawley, rat, plasma, male, 8 hr, mean n = 3, read-out: Estimated plasma concentration in rats
Where a name gives a salt, the structure may show the parent alone.
measured quantity: concentration at 8 h (ng/mL)
Value expressed in ng/mL; do not type the unit.

OC1CN2C[C@@H]3CCC[C@@H]3c3cccc(c32)CN1 (stereo partly shown) [Metabolite M1, hydroxy DCDQ] ... 41.9
O=S(=O)(O)OC1CC[C@@H]2c3cccc4c3N(CCNC4)CC12 (stereo partly shown) [Metabolite M13, 17-hydroxy DCDQ sulfate] ... 6.33
OC1CNCc2cccc3c2N1C[C@@H]1CCC[C@H]31 (stereo partly shown) [Metabolite M10, hydroxy DCDQ] ... 13.2
O=C1CC[C@@H]2c3cccc4c3N(CCNC4)C[C@H]12 [Metabolite M7, 17-keto DCDQ] ... 53
OC1[C@@H]2CCC[C@@H]2c2cccc3c2N1CCNC3 (stereo partly shown) [Metabolite M2, hydroxy DCDQ] ... 20

Enquiry: Can you look up the measured concentration at 8 h of CC(=O)N1Cc2cccc3c2N(C[C@@H]2CCC[C@H]32)C(O)C1 (stereo partly shown) [Metabolite M11, acetylated hydroxy DCDQ] for me?
Return: 16.3

Enquiry: Queued: c1cc2c3c(c1)[C@H]1CCC[C@H]1CN3CCNC2 [DCDQ, reference compound]
Return: 58.7

----------
- assay procedure: Concentrations of DCDQ and DCDQ carbamoyl glucuronide (M6) in human plasma, LC/SRM (Table 34)
- Type: in vivo, healthy human subjects
- experimental context: human, plasma, oral, 300 mg, plasma, 300 mg (fasted), 24 hr, Mean ± S.D.; read-out: DCDQ concentration in plasma
measured quantity: concentration at 24 h (ng/mL)
Numeric answer only, unit ng/mL assumed.

Enquiry: What measured concentration at 24 h goes with c1cc2c3c(c1)[C@H]1CCC[C@H]1CN3CCNC2 [DCDQ, reference compound] ?
Return: 1.46

----------
- assay procedure: Rat urinary excretion and metabolite profiles after single oral 5 mg/kg [14C]DCDQ
- Type: in vivo, Sprague-Dawley rats
- experimental context: 0-8 hr, oral 5 mg/kg, mean n = 3
- Procedure: At sacrifice, blood samples were collected by cardiac puncture into tubes containing EDTA as the anticoagulant and placing them on ice. Aliquots of 50 μL were removed for combustion and determination of radioactivity content. […] The biological specimens and aliquots of the dosing solution at pre- and post-dose were stored at approximately −70° C. until analyzed. Plasma (20 μL) and urine (50 μL) aliquots were analyzed for radioactivity concentrations. […]
measured quantity: Percentage of dose for urinary metabolites in rats (%)
Dear colleague, please return just the value in %, with no unit written.

OC1[C@@H]2CCC[C@@H]2c2cccc3c2N1CCNC3 (some centres unmarked) [Metabolite M2, hydroxy DCDQ] ... 3.16
c1cc2c3c(c1)[C@H]1CCC[C@H]1CN3CCNC2 [DCDQ, reference compound] ... 0.42

Enquiry: # get_value(readout='Percentage of dose for urinary metabolites in rats', item= OC1CN2C[C@@H]3CCC[C@@H]3c3cccc(c32)CN1 (some centres unmarked) [Metabolite M1, hydroxy DCDQ] )
Return: 8.67

Enquiry: Request: OC1CNCc2cccc3c2N1C[C@@H]1CCC[C@H]31 (some centres unmarked) [Metabolite M10, hydroxy DCDQ]
Return: 1.08

Enquiry: And then O=C1CC[C@@H]2c3cccc4c3N(CCNC4)C[C@H]12 [Metabolite M7, 17-keto DCDQ] , what is it?
Return: 3.16
